All figures here come from PubChem BioAssay AID1963958.

Measured viability, T/C of individual entries
system: MDA-MB-231 multicell spheroids, viability; experiment: Anticancer human tumor MDA-MB-231 cell line growth inhibition [PI3K]; conditions: compound 0.0316 µM; hits give low values

compound="Cn1nccc1Nc1nccc(-c2ccn(C(CO)c3ccc(Cl)c(F)c3)c(=O)c2)n1 (stereo unspecified)" target_desc="MDA-MB-231 multicell spheroids, viability" measurement="87% [middle of 4 runs]"

The reported viability, T/C of the compound CC(Nc1ccc2c(c1)OCCn1cc(N3C(=O)OCC3C(F)F)nc1-2)C(N)=O (stereo unspecified) was 81.9% [middle of 8 runs]

The reported viability, T/C of the compound CC(Cn1ccc(-c2ccc(C#N)c(Cl)c2)n1)NC(=O)c1cc(C(C)O)[nH]n1 (stereo unspecified) was 106% [middle of 4 runs]

The reported viability, T/C of the compound Cc1nc(NC(=O)N2CCCC2C(N)=O)sc1-c1ccnc(C(C)(C)C(F)(F)F)c1 (stereo unspecified) was 98.2% [middle of 8 runs]

The reported viability, T/C of the compound CC(=O)c1c(C)c2cnc(Nc3ccc(N4CCNCC4)cn3)nc2n(C2CCCC2)c1=O was 79.7% [middle of 4 runs]

The reported viability, T/C of the compound CC1(C)CCC(Nc2ncc(C(F)(F)F)c(-c3c[nH]c4c(P(C)(C)=O)c(C#N)ccc34)n2)CN1 (stereo unspecified) was 44.8% [middle of 4 runs]

The reported viability, T/C of the compound C[C@@H](NC(=O)c1ncnc(N)c1Cl)c1ncc(C(=O)Nc2cc(C(F)(F)F)c(Cl)cn2)s1 was 139% [middle of 4 runs]

The reported viability, T/C of the compound CC(C)n1nc(-c2ccc3oc(N)nc3c2)c2c(N)ncnc21 was 67.4% [middle of 4 runs]

The reported viability, T/C of the compound CC(Nc1ncnc2nc[nH]c12)c1cc2cccc(Cl)c2c(=O)n1-c1ccccc1 (stereo unspecified) was 105% [middle of 8 runs]

The reported viability, T/C of the compound CC1(C)CCC(CN2CCN(c3ccc(C(=O)NS(=O)(=O)c4ccc(NCC5CCOCC5)c([N+](=O)[O-])c4)c(Oc4cnc5[nH]ccc5c4)c3)CC2)=C(c2ccc(Cl)cc2)C1 was 108% [middle of 4 runs]

The reported viability, T/C of the compound COc1c(OCCCN2CCOCC2)ccc2c3n(c(=NC(=O)c4cnc(N)nc4)nc12)CCN3 was 61.3% [middle of 8 runs]

###

system: MDA-MB-231 multicell spheroids, viability; test: Anticancer human tumor MDA-MB-231 cell line growth inhibition [PI3K]; conditions: second compound 1 µM; first compound 1 µM; hits give low values;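 further: spheroids exposed to agents for seven days before reading; percent of vehicle control luminescence with DMSO treated spheroids as 100%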
measured_parameter: viability, T/C (%)
Supply the numeric figure in %, leaving out any unit text.

The reported viability, T/C of the compound CCN1CCN(Cc2ccc(Nc3ncc(F)c(-c4cc(F)c5nc(C)n(C(C)C)c5c4)n3)nc2)CC1 + Cc1nc(NC(=O)N2CCCC2C(N)=O)sc1-c1ccnc(C(C)(C)C(F)(F)F)c1 was 47.7

The reported viability, T/C of the compound CC1(C)CCC(Nc2ncc(C(F)(F)F)c(-c3c[nH]c4c(P(C)(C)=O)c(C#N)ccc34)n2)CN1 (stereo not drawn) + Cc1nc(NC(=O)N2CCCC2C(N)=O)sc1-c1ccnc(C(C)(C)C(F)(F)F)c1 was 45.4

The reported viability, T/C of the compound CC1(C)CCC(Nc2ncc(C(F)(F)F)c(-c3c[nH]c4c(P(C)(C)=O)c(C#N)ccc34)n2)CN1 (stereo not drawn) + COc1c(OCCCN2CCOCC2)ccc2c3n(c(=NC(=O)c4cnc(N)nc4)nc12)CCN3 was 22

###

system: MDA-MB-231 multicell spheroids, viability; assay: Anticancer human tumor MDA-MB-231 cell line growth inhibition [PI3K]; conditions: second compound 1 µM; first compound 0.1 µM; hits give low values;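 further: spheroids exposed to agents for seven days before reading; percent of vehicle control luminescence with DMSO treated spheroids as 100%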
Measured viability, T/C of individual entries

compound="CCN1CCN(Cc2ccc(Nc3ncc(F)c(-c4cc(F)c5nc(C)n(C(C)C)c5c4)n3)nc2)CC1 + CC(Nc1ccc2c(c1)OCCn1cc(N3C(=O)OCC3C(F)F)nc1-2)C(N)=O" measured_parameter="viability, T/C" measurement=34.5%
compound="CCCS(=O)(=O)Nc1ccc(F)c(C(=O)c2c[nH]c3ncc(-c4ccc(Cl)cc4)cc23)c1F + COc1c(OCCCN2CCOCC2)ccc2c3n(c(=NC(=O)c4cnc(N)nc4)nc12)CCN3" measured_parameter="viability, T/C" measurement=28.3%

# evaluate next
The reported viability, T/C of the compound C#Cc1c(F)ccc2cc(O)cc(-c3ncc4c(N5CC6CCC(C5)N6)nc(OCC56CCCN5CC(F)C6)nc4c3F)c12 (stereo not drawn) + Cc1nc(NC(=O)N2CCCC2C(N)=O)sc1-c1ccnc(C(C)(C)C(F)(F)F)c1 was 69.8%

###

Measured viability, T/C of individual entries
Tested on: MDA-MB-231 multicell spheroids, viability
Assay: Anticancer human tumor MDA-MB-231 cell line growth inhibition [PI3K];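 further: spheroids exposed to agents for seven days before reading; percent of vehicle control luminescence with DMSO treated spheroids as 100%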
Conditions: second compound 1 µM; first compound 0.1 µM; hits give low values
Source text: Combinatorial screen of targeted agents with the PI3K inhibitors inavolisib, alpelisib, duvelisib, and copanlisib in multi-cell type tumor spheroids A high-throughput screen of multi-cell type tumor spheroids was designed to identify active combinations of targeted small molecules and PI3K pathway inhibitors. […] Compounds. […] If the clinical Cmax for an agent had not been determined, the highest concentration tested was 10 microM. […]
Supply the numeric figure in %, leaving out any unit text.

compound="Cn1ncc(Cl)c1-c1cc(C(=O)NC(CN)Cc2cccc(F)c2)sc1Cl (stereo unspecified) + COc1c(OCCCN2CCOCC2)ccc2c3n(c(=NC(=O)c4cnc(N)nc4)nc12)CCN3" measurement=24.8
compound="CC1(C)CCC(CN2CCN(c3ccc(C(=O)NS(=O)(=O)c4ccc(NCC5CCOCC5)c([N+](=O)[O-])c4)c(Oc4cnc5[nH]ccc5c4)c3)CC2)=C(c2ccc(Cl)cc2)C1 + COc1c(OCCCN2CCOCC2)ccc2c3n(c(=NC(=O)c4cnc(N)nc4)nc12)CCN3" measurement=26.2
compound="C=CC(=O)N1CCN(c2nc(=O)n(-c3c(C)ccnc3C(C)C)c3nc(-c4c(O)cccc4F)c(F)cc23)C(C)C1 (stereo unspecified) + CC(Nc1ccc2c(c1)OCCn1cc(N3C(=O)OCC3C(F)F)nc1-2)C(N)=O" measurement=57.7
compound="CC(C)n1nc(-c2ccc3oc(N)nc3c2)c2c(N)ncnc21 + Cc1nc(NC(=O)N2CCCC2C(N)=O)sc1-c1ccnc(C(C)(C)C(F)(F)F)c1" measurement=23.6
compound="C[C@@H](NC(=O)c1ncnc(N)c1Cl)c1ncc(C(=O)Nc2cc(C(F)(F)F)c(Cl)cn2)s1 + CC(Nc1ccc2c(c1)OCCn1cc(N3C(=O)OCC3C(F)F)nc1-2)C(N)=O" measurement=55.4
compound="CC1(C)CCC(Nc2ncc(C(F)(F)F)c(-c3c[nH]c4c(P(C)(C)=O)c(C#N)ccc34)n2)CN1 (stereo unspecified) + CC(Nc1ccc2c(c1)OCCn1cc(N3C(=O)OCC3C(F)F)nc1-2)C(N)=O" measurement=36
compound="CC(C)NCC(C(=O)N1CCN(c2ncnc3c2C(C)CC3O)CC1)c1ccc(Cl)cc1 (stereo unspecified) + CC(Nc1ccc2c(c1)OCCn1cc(N3C(=O)OCC3C(F)F)nc1-2)C(N)=O" measurement=61.3
compound="CC1(C)CCC(Nc2ncc(C(F)(F)F)c(-c3c[nH]c4c(P(C)(C)=O)c(C#N)ccc34)n2)CN1 (stereo unspecified) + COc1c(OCCCN2CCOCC2)ccc2c3n(c(=NC(=O)c4cnc(N)nc4)nc12)CCN3" measurement=20.9

# evaluate next
The reported viability, T/C of the compound Cn1nccc1Nc1nccc(-c2ccn(C(CO)c3ccc(Cl)c(F)c3)c(=O)c2)n1 (stereo unspecified) + Cc1nc(NC(=O)N2CCCC2C(N)=O)sc1-c1ccnc(C(C)(C)C(F)(F)F)c1 was 47.2

###

system: MDA-MB-231 multicell spheroids, viability; assay: Anticancer human tumor MDA-MB-231 cell line growth inhibition [PI3K]; conditions: second compound 0.01 µM; first compound 10 µM; hits give low values;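 further: spheroids exposed to agents for seven days before reading; percent of vehicle control luminescence with DMSO treated spheroids as 100%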
Measured viability, T/C of individual entries
Supply the numeric figure in %, leaving out any unit text.

Some entries whose results are on file:
molecule="C[C@@H](NC(=O)c1ncnc(N)c1Cl)c1ncc(C(=O)Nc2cc(C(F)(F)F)c(Cl)cn2)s1 + COc1c(OCCCN2CCOCC2)ccc2c3n(c(=NC(=O)c4cnc(N)nc4)nc12)CCN3" measurement=52.5
molecule="C#Cc1c(F)ccc2cc(O)cc(-c3ncc4c(N5CC6CCC(C5)N6)nc(OCC56CCCN5CC(F)C6)nc4c3F)c12 (stereo not given) + COc1c(OCCCN2CCOCC2)ccc2c3n(c(=NC(=O)c4cnc(N)nc4)nc12)CCN3" measurement=47.5
molecule="C=CC(=O)N1CCN(c2nc(=O)n(-c3c(C)ccnc3C(C)C)c3nc(-c4c(O)cccc4F)c(F)cc23)C(C)C1 (stereo not given) + CC(Nc1ccc2c(c1)OCCn1cc(N3C(=O)OCC3C(F)F)nc1-2)C(N)=O" measurement=106
molecule="CCCS(=O)(=O)Nc1ccc(F)c(C(=O)c2c[nH]c3ncc(-c4ccc(Cl)cc4)cc23)c1F + COc1c(OCCCN2CCOCC2)ccc2c3n(c(=NC(=O)c4cnc(N)nc4)nc12)CCN3" measurement=32.3

The reported viability, T/C of the molecule CC1(C)CCC(CN2CCN(c3ccc(C(=O)NS(=O)(=O)c4ccc(NCC5CCOCC5)c([N+](=O)[O-])c4)c(Oc4cnc5[nH]ccc5c4)c3)CC2)=C(c2ccc(Cl)cc2)C1 + COc1c(OCCCN2CCOCC2)ccc2c3n(c(=NC(=O)c4cnc(N)nc4)nc12)CCN3 was 83.9
